Entry source: the kinase profiling compilation of Christmann-Franck et al. (2016)

Molecular target: FLT3 (human)
Assay: KINOMEscan competition binding
Settings: compound 10.0 µM
ENDPOINT_NAME: kinase still bound, per cent of control

- SMILES_STRING: "O=C(O)c1ccc(Nc2ncc3c(n2)-c2ccc(Cl)cc2C(c2c(F)cccc2F)=NC3)cc1"
  SYSTEM_UNDER_TEST: "FLT3 (human)"
  ENDPOINT_NAME: "kinase still bound, per cent of control"
  RESULT: "80%"
- SMILES_STRING: "Cc1ccc(C(=O)Nc2cccc(C(F)(F)F)c2)cc1Nc1cncc(C(N)=O)c1"
  SYSTEM_UNDER_TEST: "FLT3 (human)"
  ENDPOINT_NAME: "kinase still bound, per cent of control"
  RESULT: "100%"
- SMILES_STRING: "C=CC(=O)Nc1cccc(Oc2nc(Nc3ccc(N4CCN(C)CC4)cc3OC)ncc2Cl)c1"
  SYSTEM_UNDER_TEST: "FLT3 (human)"
  ENDPOINT_NAME: "kinase still bound, per cent of control"
  RESULT: "4.6%"
- SMILES_STRING: "CCCS(=O)(=O)Nc1ccc(F)c(C(=O)c2c[nH]c3ncc(-c4ccc(Cl)cc4)cc23)c1F"
  SYSTEM_UNDER_TEST: "FLT3 (human)"
  ENDPOINT_NAME: "kinase still bound, per cent of control"
  RESULT: "2.4%"

* * *

Biological target: GSK3A (human)
Test: KINOMEscan competition binding
Details: compound 10.0 µM

- SMILES_STRING: "CCC(=O)N1CCN(c2ccc(-n3c(=O)ccc4cnc5ccc(-c6cnc7ccccc7c6)cc5c43)cc2C(F)(F)F)CC1"
  kinase still bound, per cent of control (%): 93
- SMILES_STRING: "O=C(O)c1ccc(Nc2ncc3c(n2)-c2ccc(Cl)cc2C(c2c(F)cccc2F)=NC3)cc1"
  kinase still bound, per cent of control (%): 100
- SMILES_STRING: "CCOc1cc2ncc(C#N)c(Nc3ccc(OCc4ccccn4)c(Cl)c3)c2cc1NC(=O)/C=C/CN(C)C"
  kinase still bound, per cent of control (%): 97
- SMILES_STRING: "C[C@@H](Oc1cc(-n2cnc3ccc(CN4CCN(C)CC4)cc32)sc1C(N)=O)c1ccccc1C(F)(F)F"
  kinase still bound, per cent of control (%): 100
- SMILES_STRING: "OCCCNc1cc(-c2ccnc(Nc3cccc(Cl)c3)n2)ccn1"
  kinase still bound, per cent of control (%): 20
- SMILES_STRING: "Cc1ccc2nc(NCCN)c3ncc(C)n3c2c1"
  kinase still bound, per cent of control (%): 100
- SMILES_STRING: "O=C1Nc2ccc(I)cc2/C1=C/c1cc(Br)c(O)c(Br)c1"
  kinase still bound, per cent of control (%): 100

* * *

Target: MAP4K1 (human)
Experiment: KINOMEscan competition binding
Details: compound 10.0 µM
kinase still bound, per cent of control strictly under 70% means met; at 70% or over means not met.

- SMILES_STRING: "COc1cc(N2CCN(C)CC2)ccc1Nc1nc(N)c(C(=O)c2c(Cl)cccc2Cl)s1"
  SYSTEM_UNDER_TEST: "MAP4K1 (human)"
  CATEGORY_LABEL: "not met"
- SMILES_STRING: "O=C(NOC[C@H](O)CO)c1ccc(F)c(F)c1Nc1ccc(I)cc1F"
  SYSTEM_UNDER_TEST: "MAP4K1 (human)"
  CATEGORY_LABEL: "not met"
- SMILES_STRING: "CCOc1cc2ncc(C#N)c(Nc3ccc(OCc4ccccn4)c(Cl)c3)c2cc1NC(=O)/C=C/CN(C)C"
  SYSTEM_UNDER_TEST: "MAP4K1 (human)"
  CATEGORY_LABEL: "met"
- SMILES_STRING: "C[C@@H](Oc1cc(-n2cnc3ccc(CN4CCN(C)CC4)cc32)sc1C(N)=O)c1ccccc1C(F)(F)F"
  SYSTEM_UNDER_TEST: "MAP4K1 (human)"
  CATEGORY_LABEL: "not met"
- SMILES_STRING: "C=CC(=O)Nc1cccc(Oc2nc(Nc3ccc(N4CCN(C)CC4)cc3OC)ncc2Cl)c1"
  SYSTEM_UNDER_TEST: "MAP4K1 (human)"
  CATEGORY_LABEL: "met"
- SMILES_STRING: "C=CC(=O)Nc1cccc(Nc2nc(N[C@H]3CC[C@H](N(C)C)CC3)nc3c2ncn3C(C)C)c1"
  SYSTEM_UNDER_TEST: "MAP4K1 (human)"
  CATEGORY_LABEL: "not met"
- SMILES_STRING: "CC[C@@H]1C(=O)N(C)c2cnc(Nc3ccc(C(=O)NC4CCN(C)CC4)cc3OC)nc2N1C1CCCC1"
  SYSTEM_UNDER_TEST: "MAP4K1 (human)"
  CATEGORY_LABEL: "not met"

* * *

We begin with a simple list: items and their reported kinase still bound, per cent of control.
Biological target: MAPK10 (human)
Test: KINOMEscan competition binding
Settings: compound 10.0 µM

- SMILES_STRING: "COc1cc(C(=O)NC2CCN(C)CC2)ccc1Nc1ncc2c(n1)N(C1CCCC1)CCC(=O)N2C(C)C"
  MEASURE_UNIT: "%"
  kinase still bound, per cent of control: 100
- SMILES_STRING: "CN(C)C/C=C/C(=O)Nc1cccc(Nc2ncc3c(n2)N(C)c2ccccc2C(=O)N3C)c1"
  MEASURE_UNIT: "%"
  kinase still bound, per cent of control: 80
- SMILES_STRING: "C=CC(=O)Nc1cc(NC(=O)c2ccc(C)c(NC(=O)c3ccno3)c2)cc(C(F)(F)F)c1"
  MEASURE_UNIT: "%"
  kinase still bound, per cent of control: 86
- SMILES_STRING: "CCCS(=O)(=O)Nc1ccc(F)c(C(=O)c2c[nH]c3ncc(-c4ccc(Cl)cc4)cc23)c1F"
  MEASURE_UNIT: "%"
  kinase still bound, per cent of control: 91
- SMILES_STRING: "Cc1ccc(C(=O)Nc2cccc(C(F)(F)F)c2)cc1Nc1cncc(C(N)=O)c1"
  MEASURE_UNIT: "%"
  kinase still bound, per cent of control: 100
- SMILES_STRING: "Cn1c(=O)n(-c2ccc(C(C)(C)C#N)cc2)c2c3cc(-c4cnc5ccccc5c4)ccc3ncc21"
  MEASURE_UNIT: "%"
  kinase still bound, per cent of control: 100
- SMILES_STRING: "CC[C@@H]1C(=O)N(C)c2cnc(Nc3ccc(C(=O)NC4CCN(C)CC4)cc3OC)nc2N1C1CCCC1"
  MEASURE_UNIT: "%"
  kinase still bound, per cent of control: 100

* * *

Molecular target: AKT2 (human)
Experiment: KINOMEscan competition binding
Details: compound 10.0 µM
ENDPOINT_NAME: kinase still bound, per cent of control (%)

- SMILES_STRING: "Nc1ccc(-c2ccc3ncc4ccc(=O)n(-c5cccc(C(F)(F)F)c5)c4c3c2)cn1"
  QUANTITATIVE_READOUT: 100
- SMILES_STRING: "CCOc1cc2ncc(C#N)c(Nc3ccc(OCc4ccccn4)c(Cl)c3)c2cc1NC(=O)/C=C/CN(C)C"
  QUANTITATIVE_READOUT: 99
- SMILES_STRING: "C=CC(=O)Nc1cccc(Nc2nc(N[C@H]3CC[C@H](N(C)C)CC3)nc3c2ncn3C(C)C)c1"
  QUANTITATIVE_READOUT: 84
- SMILES_STRING: "OCCCNc1cc(-c2ccnc(Nc3cccc(Cl)c3)n2)ccn1"
  QUANTITATIVE_READOUT: 100
- SMILES_STRING: "Cc1cc([C@@H](C)Nc2ccccc2C(=O)O)c2nc(N3CCOCC3)cc(=O)n2c1"
  QUANTITATIVE_READOUT: 86
- SMILES_STRING: "CC[C@@H]1C(=O)N(C)c2cnc(Nc3ccc(C(=O)NC4CCN(C)CC4)cc3OC)nc2N1C1CCCC1"
  QUANTITATIVE_READOUT: 100
- SMILES_STRING: "C=CC(=O)Nc1cc(NC(=O)c2ccc(C)c(NC(=O)c3ccno3)c2)cc(C(F)(F)F)c1"
  QUANTITATIVE_READOUT: 100
- SMILES_STRING: "CCN1CCN(Cc2ccc(Nc3ncc4c(n3)N(C)c3ccccc3C(=O)N4C)cc2C(F)(F)F)CC1"
  QUANTITATIVE_READOUT: 100
- SMILES_STRING: "C=CC(=O)Nc1cccc(Oc2nc(Nc3ccc(N4CCN(C)CC4)cc3OC)ncc2Cl)c1"
  QUANTITATIVE_READOUT: 100

* * *

Molecular target: MARK2 (human) (UniProt Q7KZI7)
Sequence (Q7KZI7 whole entry, looked up): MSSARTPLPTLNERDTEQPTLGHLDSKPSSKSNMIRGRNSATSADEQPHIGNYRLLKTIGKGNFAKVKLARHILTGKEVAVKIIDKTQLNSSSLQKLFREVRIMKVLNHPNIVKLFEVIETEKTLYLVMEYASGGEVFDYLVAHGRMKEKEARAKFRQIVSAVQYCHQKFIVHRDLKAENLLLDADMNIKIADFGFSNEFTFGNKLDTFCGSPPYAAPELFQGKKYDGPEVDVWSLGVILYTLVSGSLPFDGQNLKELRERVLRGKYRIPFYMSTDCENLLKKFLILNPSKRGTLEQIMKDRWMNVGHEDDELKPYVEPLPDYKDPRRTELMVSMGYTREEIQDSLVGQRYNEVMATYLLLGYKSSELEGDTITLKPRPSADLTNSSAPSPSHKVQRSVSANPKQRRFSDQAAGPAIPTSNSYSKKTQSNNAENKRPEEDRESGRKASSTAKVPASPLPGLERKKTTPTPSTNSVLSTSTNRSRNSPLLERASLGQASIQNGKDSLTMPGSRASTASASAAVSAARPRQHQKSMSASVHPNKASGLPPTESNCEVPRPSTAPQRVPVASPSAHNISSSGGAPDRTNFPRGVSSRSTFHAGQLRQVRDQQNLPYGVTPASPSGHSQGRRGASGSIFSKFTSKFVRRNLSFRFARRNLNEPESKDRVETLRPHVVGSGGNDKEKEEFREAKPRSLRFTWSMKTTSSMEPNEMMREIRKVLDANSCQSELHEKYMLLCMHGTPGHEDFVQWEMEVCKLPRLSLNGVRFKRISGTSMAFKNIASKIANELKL
Test: KINOMEscan competition binding
Details: compound 10.0 µM

- COMPOUND: "COc1cc(N2CCN(C)CC2)ccc1Nc1nc(N)c(C(=O)c2c(Cl)cccc2Cl)s1"
  kinase still bound, per cent of control [%]: 90
- COMPOUND: "CN(C)C/C=C/C(=O)Nc1cccc(Nc2ncc3c(n2)N(C)c2ccccc2C(=O)N3C)c1"
  kinase still bound, per cent of control [%]: 21
- COMPOUND: "O=C(O)c1ccc(Nc2ncc3c(n2)-c2ccc(Cl)cc2C(c2c(F)cccc2F)=NC3)cc1"
  kinase still bound, per cent of control [%]: 93
- COMPOUND: "CCN1CCN(Cc2ccc(Nc3ncc4c(n3)N(C)c3ccccc3C(=O)N4C)cc2C(F)(F)F)CC1"
  kinase still bound, per cent of control [%]: 40
- COMPOUND: "O=C(NOC[C@H](O)CO)c1ccc(F)c(F)c1Nc1ccc(I)cc1F"
  kinase still bound, per cent of control [%]: 100
- COMPOUND: "O=C(NC1CC1)c1cccc(-c2ccc3c(NC(=O)C4CC4)n[nH]c3c2)c1"
  kinase still bound, per cent of control [%]: 45
- COMPOUND: "COc1cc(C(=O)NC2CCN(C)CC2)ccc1Nc1ncc2c(n1)N(C1CCCC1)CCC(=O)N2C(C)C"
  kinase still bound, per cent of control [%]: 100
- COMPOUND: "CCOc1cc2ncc(C#N)c(Nc3ccc(OCc4ccccn4)c(Cl)c3)c2cc1NC(=O)/C=C/CN(C)C"
  kinase still bound, per cent of control [%]: 86
- COMPOUND: "COc1cc(C(=O)NC2CCN(C)CC2)ccc1Nc1ncc2c(n1)N(C1CCCC1)C(C)CC(=O)N2C (centres undefined)"
  kinase still bound, per cent of control [%]: 100
- COMPOUND: "C=CC(=O)Nc1cccc(Nc2nc(N[C@H]3CC[C@H](N(C)C)CC3)nc3c2ncn3C(C)C)c1"
  kinase still bound, per cent of control [%]: 57
- COMPOUND: "Cc1ccc2nc(NCCN)c3ncc(C)n3c2c1"
  kinase still bound, per cent of control [%]: 100
- COMPOUND: "Cc1ccc(C(=O)Nc2cccc(C(F)(F)F)c2)cc1Nc1cncc(C(N)=O)c1"
  kinase still bound, per cent of control [%]: 100
- COMPOUND: "Cn1c(=O)n(-c2ccc(C(C)(C)C#N)cc2)c2c3cc(-c4cnc5ccccc5c4)ccc3ncc21"
  kinase still bound, per cent of control [%]: 100
- COMPOUND: "CCCS(=O)(=O)Nc1ccc(F)c(C(=O)c2c[nH]c3ncc(-c4ccc(Cl)cc4)cc23)c1F"
  kinase still bound, per cent of control [%]: 69
- COMPOUND: "Cc1cc([C@@H](C)Nc2ccccc2C(=O)O)c2nc(N3CCOCC3)cc(=O)n2c1"
  kinase still bound, per cent of control [%]: 90
- COMPOUND: "C[C@@H](Oc1cc(-n2cnc3ccc(CN4CCN(C)CC4)cc32)sc1C(N)=O)c1ccccc1C(F)(F)F"
  kinase still bound, per cent of control [%]: 53
- COMPOUND: "Nc1ccc(-c2ccc3ncc4ccc(=O)n(-c5cccc(C(F)(F)F)c5)c4c3c2)cn1"
  kinase still bound, per cent of control [%]: 100
- COMPOUND: "OCCCNc1cc(-c2ccnc(Nc3cccc(Cl)c3)n2)ccn1"
  kinase still bound, per cent of control [%]: 100
- COMPOUND: "N#Cc1c(NC(=O)c2cccc3ccccc23)sc2c1CCCC2"
  kinase still bound, per cent of control [%]: 100
